B1: HDV Ribozyme (parent)
chain: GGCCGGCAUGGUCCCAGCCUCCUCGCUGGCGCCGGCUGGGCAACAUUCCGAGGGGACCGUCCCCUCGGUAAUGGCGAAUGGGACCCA

variants of: B1; assay: self-cleavage, relative activity (ratio to wild type); higher = more cleavage; co-transcriptional
attribute_measured: self-cleavage

variant_annotation: G28C G52C
assay_value: 0.229

variant_annotation: C15G C66G
assay_value: 0.475

variant_annotation: C21U G73U
assay_value: 0.145

variant_annotation: C48U G80U
assay_value: 0.194

variant_annotation: C13G G35U
assay_value: 0.0504

variant_annotation: C15G C48A
assay_value: 0.623

variant_annotation: G52C G82C
assay_value: 0.141

variant_annotation: C63A C85U
assay_value: 0.911

variant_annotation: C13A U69A
assay_value: 0.277

variant_annotation: G17U C66A
assay_value: 0.684

variant_annotation: U37G U69G
assay_value: 0.0723

variant_annotation: C58G A78G
assay_value: 0.723

variant_annotation: C3U C7G
assay_value: 0

variant_annotation: C15G G29U
assay_value: 0

variant_annotation: U65G A71G
assay_value: 0.917

variant_annotation: C30G C64G
assay_value: 0.0396

variant_annotation: C22A G31U
assay_value: 0.0594

variant_annotation: C13G G28U
assay_value: 0

variant_annotation: C4U C44G
assay_value: 0.214

variant_annotation: G1C G10U
assay_value: 0.143

variant_annotation: G1A G68A
assay_value: 0.101

variant_annotation: C41G G67C
assay_value: 0.678

variant_annotation: G2U G54C
assay_value: 0.0157

variant_annotation: G17U C44G
assay_value: 0.222

variant_annotation: C7U U72C
assay_value: 0.268

variant_annotation: G34A A87U
assay_value: 0.196

variant_annotation: C22G C30A
assay_value: 0.0652

variant_annotation: U23A A83G
assay_value: 0.767

variant_annotation: G40C A51U
assay_value: 0.157

variant_annotation: A8C C19U
assay_value: 0.0739

variant_annotation: C14A G38C
assay_value: 0.141

variant_annotation: C3U G59A
assay_value: 0.925

variant_annotation: G81U A87C
assay_value: 0.444

variant_annotation: G34A U60G
assay_value: 0.237

variant_annotation: U60G A70C
assay_value: 0.95

variant_annotation: A42G C62U
assay_value: 0.808

variant_annotation: C41U U46C
assay_value: 0.734

variant_annotation: C4G A70G
assay_value: 0.59

variant_annotation: G11C A71C
assay_value: 0.306

variant_annotation: U12C C24A
assay_value: 0.232

variant_annotation: U20G C48U
assay_value: 0.237

variant_annotation: A51G C84U
assay_value: 0.975

variant_annotation: G2C A16G
assay_value: 0.131

variant_annotation: G29U C84G
assay_value: 0.0277

variant_annotation: C44U A71G
assay_value: 0.95

variant_annotation: U60C C75A
assay_value: 0.237
